// provenance: paper PMC10708527

- measured target: intestinal α-glucosidase
- Construct: crude rat intestinal enzyme
- procedure summary: crude enzyme inhibition, p-nitrophenyl-α-D-glucopyranoside hydrolysis at […] nm
- Type: biochemical, Rattus norvegicus
observed property: Intestinal α-Glucosidase % Inhibition (IC50) (µg/mL)
Your answer should be a plain number; it is taken to be in µg/mL.

Below: 4 compounds and their reported Intestinal α-Glucosidase % Inhibition (IC50).
INSERT INTO assay_data (compound, observed_result) VALUES
  ('COc1c(C)c(O)cc(C)c1C(=O)O', 1.99),
  ('Cc1cc(O)c(C=O)c2c1C(=O)Oc1c(CO)c(O)c3c(c1O2)C(O)OC3=O (centres unmarked)', 1.62),
  ('C[C@H]1O[C@H](O[C@H]2[C@H](O)[C@@H](O)[C@@H](O[C@H]3[C@H](O)[C@@H](O)C(O)O[C@@H]3CO)O[C@@H]2CO)[C@H](O)[C@@H](O)[C@@H]1N[C@H]1C=C(CO)[C@@H](O)[C@H](O)[C@H]1O (some centres unmarked) [acarbose, reference compound]', 2.58),
  ('CCCCCc1cc(O)cc2c1Oc1cc(O)cc(C(=O)CCCC)c1C(=O)O2', 1.41);

Alright, here's another compound for you.
Q: Look up Intestinal α-Glucosidase % Inhibition (IC50) for this compound: COC(=O)c1c(C)cc(OC(=O)c2c(C)cc(O)c(C=O)c2O)c(C)c1O
Result: 2.07
